# assay_details: Binding affinity to CP645 probe-labeled Fe3+ in DMSO/MOPS buffer assessed as concentration of free Fe3+ in solution at 60 uM after 48 hrs by spectrofluorophotometric method
measure: log free Fe3+ concentration

[[record]]
structure_smiles = "CN(C)c1ccc(/C=C/c2cc(=O)c(O)cn2C)cc1"
measure = "log free Fe3+ concentration"
experimental_result = -19.2

[[record]]
structure_smiles = "Cn1cc(O)c(=O)cc1/C=C/c1ccccc1O"
measure = "log free Fe3+ concentration"
experimental_result = -20.3

[[record]]
structure_smiles = "CCOc1ccc(/C=C/c2cc(=O)c(O)c[nH]2)cc1"
measure = "log free Fe3+ concentration"
experimental_result = -20.1

[[record]]
structure_smiles = "O=c1cc(/C=C/c2ccc([N+](=O)[O-])cc2)[nH]cc1O"
measure = "log free Fe3+ concentration"
experimental_result = -19.5

[[record]]
structure_smiles = "Cn1cc(O)c(=O)cc1/C=C/c1ccc(Cl)cc1"
measure = "log free Fe3+ concentration"
experimental_result = -20.8

[[record]]
structure_smiles = "O=c1cc(/C=C/c2cc(O)cc(O)c2)[nH]cc1O"
measure = "log free Fe3+ concentration"
experimental_result = -19.2

[[record]]
structure_smiles = "COc1cc(/C=C/c2cc(=O)c(O)cn2C)cc(OC)c1"
measure = "log free Fe3+ concentration"
experimental_result = -21.2

[[record]]
structure_smiles = "Cn1cc(O)c(=O)cc1/C=C/c1ccc(O)cc1"
measure = "log free Fe3+ concentration"
experimental_result = -20.1

[[record]]
structure_smiles = "COc1cc(/C=C/c2cc(=O)c(O)c[nH]2)cc(OC)c1"
measure = "log free Fe3+ concentration"
experimental_result = -21.6

[[record]]
structure_smiles = "COc1ccccc1/C=C/c1cc(=O)c(O)c[nH]1"
measure = "log free Fe3+ concentration"
experimental_result = -20.2

[[record]]
structure_smiles = "CN(C)c1ccc(/C=C/c2cc(=O)c(O)c[nH]2)cc1"
measure = "log free Fe3+ concentration"
experimental_result = -20.1

[[record]]
structure_smiles = "O=c1cc(/C=C/c2cccc(F)c2)[nH]cc1O"
measure = "log free Fe3+ concentration"
experimental_result = -20.2

[[record]]
structure_smiles = "Cn1cc(O)c(=O)cc1/C=C/c1ccccc1"
measure = "log free Fe3+ concentration"
experimental_result = -19.8

[[record]]
structure_smiles = "O=c1cc(/C=C/c2ccccc2)[nH]cc1O"
measure = "log free Fe3+ concentration"
experimental_result = -21

[[record]]
structure_smiles = "Cc1c(O)c(=O)ccn1C"
measure = "log free Fe3+ concentration"
experimental_result = -20.6

[[record]]
structure_smiles = "O=c1cc(/C=C/c2ccc(Cl)cc2)[nH]cc1O"
measure = "log free Fe3+ concentration"
experimental_result = -19.5

[[record]]
structure_smiles = "COc1ccccc1/C=C/c1cc(=O)c(O)cn1C"
measure = "log free Fe3+ concentration"
experimental_result = -20.6

[[record]]
structure_smiles = "Cn1cc(O)c(=O)cc1/C=C/c1cc(O)cc(O)c1"
measure = "log free Fe3+ concentration"
experimental_result = -20.1

[[record]]
structure_smiles = "CCOc1ccc(/C=C/c2cc(=O)c(O)cn2C)cc1"
measure = "log free Fe3+ concentration"
experimental_result = -19

[[record]]
structure_smiles = "O=c1cc(/C=C/c2ccc(O)cc2)[nH]cc1O"
measure = "log free Fe3+ concentration"
experimental_result = -19.6

[[record]]
structure_smiles = "Cn1cc(O)c(=O)cc1/C=C/c1ccc([N+](=O)[O-])cc1"
measure = "log free Fe3+ concentration"
experimental_result = -18.4

[[record]]
structure_smiles = "Cn1cc(O)c(=O)cc1/C=C/c1cccc(F)c1"
measure = "log free Fe3+ concentration"
experimental_result = -20.1

[[record]]
structure_smiles = "O=c1cc(/C=C/c2ccccc2O)[nH]cc1O"
measure = "log free Fe3+ concentration"
experimental_result = -20.2


###

# assay_system: UniProt P05067
# assay_details: Inhibition of HFIP-pretreated amyloid beta (1 to 42) (unknown origin) self-induced aggregation at 20 uM incubated for 24 hrs under dark condition by thioflavin-T based fluorometric assay relative to control
The label depends only on inhibition: Condition met if it is at least 40%, Condition not met if it is smaller.

[[record]]
structure_smiles = "Cn1cc(O)c(=O)cc1/C=C/c1ccc(Cl)cc1"
assigned_label = "Condition not met"

[[record]]
structure_smiles = "COc1ccccc1/C=C/c1cc(=O)c(O)c[nH]1"
assigned_label = "Condition met"

[[record]]
structure_smiles = "Cn1cc(O)c(=O)cc1/C=C/c1cc(O)cc(O)c1"
assigned_label = "Condition not met"

[[record]]
structure_smiles = "O=c1cc(/C=C/c2ccccc2)[nH]cc1O"
assigned_label = "Condition not met"

[[record]]
structure_smiles = "O=c1cc(/C=C/c2cc(O)cc(O)c2)[nH]cc1O"
assigned_label = "Condition not met"

[[record]]
structure_smiles = "O=c1cc(/C=C/c2ccccc2O)[nH]cc1O"
assigned_label = "Condition met"

[[record]]
structure_smiles = "Cn1cc(O)c(=O)cc1/C=C/c1ccccc1O"
assigned_label = "Condition not met"

[[record]]
structure_smiles = "Cn1cc(O)c(=O)cc1/C=C/c1cccc(F)c1"
assigned_label = "Condition met"

[[record]]
structure_smiles = "CCOc1ccc(/C=C/c2cc(=O)c(O)cn2C)cc1"
assigned_label = "Condition met"

[[record]]
structure_smiles = "CCOc1ccc(/C=C/c2cc(=O)c(O)c[nH]2)cc1"
assigned_label = "Condition met"

[[record]]
structure_smiles = "O=c1cc(/C=C/c2ccc(O)cc2)[nH]cc1O"
assigned_label = "Condition met"

[[record]]
structure_smiles = "COc1cc(/C=C/c2cc(=O)c(O)c[nH]2)cc(OC)c1"
assigned_label = "Condition not met"

[[record]]
structure_smiles = "COc1ccccc1/C=C/c1cc(=O)c(O)cn1C"
assigned_label = "Condition met"

[[record]]
structure_smiles = "COc1cc(/C=C/c2cc(=O)c(O)cn2C)cc(OC)c1"
assigned_label = "Condition not met"

[[record]]
structure_smiles = "O=c1cc(/C=C/c2ccc(Cl)cc2)[nH]cc1O"
assigned_label = "Condition not met"

[[record]]
structure_smiles = "CN(C)c1ccc(/C=C/c2cc(=O)c(O)c[nH]2)cc1"
assigned_label = "Condition met"

[[record]]
structure_smiles = "O=c1cc(/C=C/c2cccc(F)c2)[nH]cc1O"
assigned_label = "Condition met"

[[record]]
structure_smiles = "CN(C)c1ccc(/C=C/c2cc(=O)c(O)cn2C)cc1"
assigned_label = "Condition met"

[[record]]
structure_smiles = "Cn1cc(O)c(=O)cc1/C=C/c1ccccc1"
assigned_label = "Condition not met"

[[record]]
structure_smiles = "Cn1cc(O)c(=O)cc1/C=C/c1ccc(O)cc1"
assigned_label = "Condition met"


###

# assay_system: Amyloid-beta precursor protein (Homo sapiens, UniProt P05067)
# Sequence (P05067 whole entry): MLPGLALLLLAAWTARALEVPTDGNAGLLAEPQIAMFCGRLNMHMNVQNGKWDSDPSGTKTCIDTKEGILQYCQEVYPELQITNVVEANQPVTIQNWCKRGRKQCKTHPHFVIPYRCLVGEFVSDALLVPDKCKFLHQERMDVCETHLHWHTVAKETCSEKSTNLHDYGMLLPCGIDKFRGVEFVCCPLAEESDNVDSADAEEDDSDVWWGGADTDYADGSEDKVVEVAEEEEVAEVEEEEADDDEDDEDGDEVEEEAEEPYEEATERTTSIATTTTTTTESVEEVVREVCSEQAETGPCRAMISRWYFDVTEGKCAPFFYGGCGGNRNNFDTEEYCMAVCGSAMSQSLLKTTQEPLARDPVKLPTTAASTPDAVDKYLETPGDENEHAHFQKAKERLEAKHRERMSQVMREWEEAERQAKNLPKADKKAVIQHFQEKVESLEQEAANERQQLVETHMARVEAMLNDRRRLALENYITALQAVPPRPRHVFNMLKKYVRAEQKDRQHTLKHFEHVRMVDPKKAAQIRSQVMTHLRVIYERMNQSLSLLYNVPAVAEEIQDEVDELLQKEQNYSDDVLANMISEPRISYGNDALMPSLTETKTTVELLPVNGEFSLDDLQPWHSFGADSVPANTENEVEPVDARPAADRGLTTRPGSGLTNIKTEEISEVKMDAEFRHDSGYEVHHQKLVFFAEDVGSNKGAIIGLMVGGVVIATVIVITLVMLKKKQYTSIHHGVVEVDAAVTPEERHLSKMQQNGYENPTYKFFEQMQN
# assay_details: Inhibition of HFIP-pretreated amyloid beta (1 to 42) (unknown origin) self-induced aggregation incubated for 24 hrs under dark condition by thioflavin-T based fluorometric assay
pIC50: −log10 of the molar value.
Some molecules, each annotated with its measured pIC50.
measure: pIC50

[[record]]
structure_smiles = "Cn1cc(O)c(=O)cc1/C=C/c1ccc(O)cc1"
experimental_result = 4.81

[[record]]
structure_smiles = "COc1ccccc1/C=C/c1cc(=O)c(O)cn1C"
experimental_result = 4.90

[[record]]
structure_smiles = "O=c1cc(/C=C/c2ccccc2O)[nH]cc1O"
experimental_result = 4.66


###

Some compounds, each annotated with its measured pIC50.
# assay_system: Amyloid-beta precursor protein (Homo sapiens, UniProt P05067)
# assay_details: Inhibition of HFIP-pretreated amyloid beta (1 to 42) (unknown origin) self-induced aggregation incubated for 24 hrs under dark condition by thioflavin-T based fluorometric assay
pIC50: −log10 of the molar value.
measure: pIC50

[[record]]
structure_smiles = "O=c1cc(/C=C/c2cccc(F)c2)[nH]cc1O"
measure = "pIC50"
experimental_result = 4.72

[[record]]
structure_smiles = "Cn1cc(O)c(=O)cc1/C=C/c1cccc(F)c1"
measure = "pIC50"
experimental_result = 4.71

[[record]]
structure_smiles = "COc1ccccc1/C=C/c1cc(=O)c(O)c[nH]1"
measure = "pIC50"
experimental_result = 4.78

[[record]]
structure_smiles = "CCOc1ccc(/C=C/c2cc(=O)c(O)cn2C)cc1"
measure = "pIC50"
experimental_result = 5.05

[[record]]
structure_smiles = "CCOc1ccc(/C=C/c2cc(=O)c(O)c[nH]2)cc1"
measure = "pIC50"
experimental_result = 4.63

[[record]]
structure_smiles = "O=c1cc(/C=C/c2ccc(O)cc2)[nH]cc1O"
measure = "pIC50"
experimental_result = 4.97

[[record]]
structure_smiles = "CN(C)c1ccc(/C=C/c2cc(=O)c(O)c[nH]2)cc1"
measure = "pIC50"
experimental_result = 4.53

